test system: Escherichia coli TOP10; assay: shrunken log2 fold change of peptide-encoding DNA abundance (4.5 h post-induction vs induction); higher = less antimicrobial activity (less host growth inhibition); settings: time post-induction: 4.5 h; library: site-saturation at positions 5, 18, 19, 20
Recorded metric: shrunken log2 fold change

| Sequence entry | Study target | Data value |
| --- | --- | --- |
| RRIRERPPRLPRPRPRPGNMPRP | Escherichia coli TOP10 | -0.0808 |
| RRIRLRPPRLPRPRPRPQREPRP | Escherichia coli TOP10 | 0.144 |
| RRIRQRPPRLPRPRPRPGTGPRP | Escherichia coli TOP10 | -0.121 |
| RRIRVRPPRLPRPRPRPPTWPRP | Escherichia coli TOP10 | 0.0832 |
| RRIRIRPPRLPRPRPRPMYLPRP | Escherichia coli TOP10 | -0.249 |
| RRIRWRPPRLPRPRPRPHKHPRP | Escherichia coli TOP10 | -0.117 |

----------
system: Escherichia coli TOP10; assay: shrunken log2 fold change of peptide-encoding DNA abundance (4.5 h post-induction vs induction); higher = less antimicrobial activity (less host growth inhibition); conditions: time post-induction: 4.5 h; library: site-saturation at positions 5, 18, 19, 20
# key: entry, value: shrunken log2 fold change
Recorded metric: shrunken log2 fold change

| Sequence entry | Recorded metric | Data value |
| --- | --- | --- |
| RRIRVRPPRLPRPRPRPESMPRP | shrunken log2 fold change | -0.149 |
| RRIRTRPPRLPRPRPRPRKTPRP | shrunken log2 fold change | 0.111 |
| RRIRLRPPRLPRPRPRPYNTPRP | shrunken log2 fold change | -0.806 |
| RRIRPRPPRLPRPRPRPQIYPRP | shrunken log2 fold change | -0.858 |

----------
test system: Escherichia coli TOP10; experiment: shrunken log2 fold change of peptide-encoding DNA abundance (4.5 h post-induction vs induction); higher = less antimicrobial activity (less host growth inhibition); conditions: time post-induction: 4.5 h; library: site-saturation at positions 5, 18, 19, 20
// false (0) strictly below -0.05 in shrunken log2 fold change; true (1) otherwise

| Sequence entry | Label class |
| --- | --- |
| RRIRWRPPRLPRPRPRPTANPRP | true (1) |
| RRIRHRPPRLPRPRPRPFALPRP | true (1) |
| RRIRSRPPRLPRPRPRPIELPRP | false (0) |
| RRIRWRPPRLPRPRPRPCSTPRP | true (1) |
| RRIRIRPPRLPRPRPRPDSHPRP | false (0) |
| RRIRPRPPRLPRPRPRPTHEPRP | true (1) |
| RRIRKRPPRLPRPRPRPDHLPRP | false (0) |
| RRIRVRPPRLPRPRPRPIPYPRP | false (0) |
| RRIRVRPPRLPRPRPRPLKEPRP | true (1) |
| RRIRPRPPRLPRPRPRPDCFPRP | true (1) |
| RRIRLRPPRLPRPRPRPCSYPRP | false (0) |
| RRIRRRPPRLPRPRPRPIAQPRP | true (1) |
| RRIRMRPPRLPRPRPRPGLGPRP | true (1) |
| RRIRSRPPRLPRPRPRPMHHPRP | true (1) |
| RRIRERPPRLPRPRPRPVQCPRP | true (1) |
| RRIRERPPRLPRPRPRPKRSPRP | true (1) |
| RRIRIRPPRLPRPRPRPVWGPRP | true (1) |
| RRIRERPPRLPRPRPRPIWLPRP | true (1) |
| RRIRFRPPRLPRPRPRPDWFPRP | false (0) |
| RRIRERPPRLPRPRPRPPMMPRP | false (0) |
| RRIRKRPPRLPRPRPRPWVWPRP | true (1) |
| RRIRCRPPRLPRPRPRPTVTPRP | false (0) |
| RRIRYRPPRLPRPRPRPCKPPRP | true (1) |
| RRIRLRPPRLPRPRPRPHSCPRP | false (0) |
| RRIRYRPPRLPRPRPRPRDCPRP | false (0) |
| RRIRKRPPRLPRPRPRPTSVPRP | true (1) |
| RRIRLRPPRLPRPRPRPIKSPRP | false (0) |
| RRIRLRPPRLPRPRPRPRDFPRP | false (0) |
| RRIRFRPPRLPRPRPRPTGRPRP | true (1) |
| RRIRQRPPRLPRPRPRPQTIPRP | false (0) |
| RRIRCRPPRLPRPRPRPYFNPRP | false (0) |
| RRIRQRPPRLPRPRPRPQWSPRP | true (1) |
| RRIRGRPPRLPRPRPRPQSIPRP | true (1) |
| RRIRNRPPRLPRPRPRPWINPRP | true (1) |
| RRIRNRPPRLPRPRPRPDQPPRP | true (1) |
| RRIRVRPPRLPRPRPRPCGAPRP | true (1) |
| RRIRPRPPRLPRPRPRPFLFPRP | false (0) |
| RRIRERPPRLPRPRPRPTVSPRP | false (0) |
| RRIRMRPPRLPRPRPRPANHPRP | true (1) |
| RRIRSRPPRLPRPRPRPGLEPRP | true (1) |
| RRIRRRPPRLPRPRPRPWIWPRP | false (0) |
| RRIRARPPRLPRPRPRPTYQPRP | false (0) |
| RRIRQRPPRLPRPRPRPKCCPRP | false (0) |
| RRIRLRPPRLPRPRPRPYAPPRP | false (0) |
| RRIRARPPRLPRPRPRPLRQPRP | true (1) |
| RRIRNRPPRLPRPRPRPSCRPRP | true (1) |
| RRIRMRPPRLPRPRPRPPCMPRP | true (1) |
| RRIRWRPPRLPRPRPRPAPTPRP | true (1) |
| RRIRGRPPRLPRPRPRPQKVPRP | true (1) |

----------
test system: Escherichia coli TOP10; experiment: shrunken log2 fold change of peptide-encoding DNA abundance (4.5 h post-induction vs induction); higher = less antimicrobial activity (less host growth inhibition); conditions: time post-induction: 4.5 h; library: site-saturation at positions 5, 18, 19, 20
// no strictly below 0.04 in shrunken log2 fold change; yes otherwise

| Sequence entry | Label class |
| --- | --- |
| RRIRFRPPRLPRPRPRPSVDPRP | no |
| RRIRGRPPRLPRPRPRPDDPPRP | no |
| RRIRFRPPRLPRPRPRPRWAPRP | yes |
| RRIRARPPRLPRPRPRPCLTPRP | yes |
| RRIRLRPPRLPRPRPRPWINPRP | no |
| RRIRFRPPRLPRPRPRPEVVPRP | yes |
| RRIRCRPPRLPRPRPRPVNGPRP | yes |

----------
# key: entry, value: shrunken log2 fold change
system: Escherichia coli TOP10; test: shrunken log2 fold change of peptide-encoding DNA abundance (4.5 h post-induction vs induction); higher = less antimicrobial activity (less host growth inhibition); conditions: time post-induction: 4.5 h; library: site-saturation at positions 5, 18, 19, 20
Recorded metric: shrunken log2 fold change

| Sequence entry | Study target | Recorded metric | Data value |
| --- | --- | --- | --- |
| RRIRNRPPRLPRPRPRPCRLPRP | Escherichia coli TOP10 | shrunken log2 fold change | -0.0199 |
| RRIRRRPPRLPRPRPRPDMIPRP | Escherichia coli TOP10 | shrunken log2 fold change | -0.0332 |
| RRIRIRPPRLPRPRPRPQAIPRP | Escherichia coli TOP10 | shrunken log2 fold change | 0.0305 |
| RRIRQRPPRLPRPRPRPNPQPRP | Escherichia coli TOP10 | shrunken log2 fold change | 0.129 |
| RRIRSRPPRLPRPRPRPVDFPRP | Escherichia coli TOP10 | shrunken log2 fold change | -0.0272 |
| RRIRTRPPRLPRPRPRPASDPRP | Escherichia coli TOP10 | shrunken log2 fold change | -0.141 |
| RRIRDRPPRLPRPRPRPWTEPRP | Escherichia coli TOP10 | shrunken log2 fold change | 0.0384 |
| RRIRPRPPRLPRPRPRPNMVPRP | Escherichia coli TOP10 | shrunken log2 fold change | -0.772 |
| RRIRCRPPRLPRPRPRPQCKPRP | Escherichia coli TOP10 | shrunken log2 fold change | -0.619 |

----------
test system: Escherichia coli TOP10; experiment: shrunken log2 fold change of peptide-encoding DNA abundance (4.5 h post-induction vs induction); higher = less antimicrobial activity (less host growth inhibition); conditions: time post-induction: 4.5 h; library: site-saturation at positions 5, 18, 19, 20;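 note: peptides expressed intracellularly from a pBAD plasmid library in pooled LB shake-flask culture, induced with 0.3% L-arabinose, DNA abundance read by NGS, three biological replicates, DESeq2 with apeglm shrinkage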
Label scheme, based on shrunken log2 fold change: zone 1: < -0.2; zone 2: ≥ -0.2 and < 0.1; zone 3: ≥ 0.1

| Sequence entry | Label class |
| --- | --- |
| RRIRHRPPRLPRPRPRPGQVPRP | zone 2 |
| RRIRRRPPRLPRPRPRPIADPRP | zone 2 |
| RRIRLRPPRLPRPRPRPIHFPRP | zone 1 |
| RRIRPRPPRLPRPRPRPTNQPRP | zone 2 |
| RRIRKRPPRLPRPRPRPAWLPRP | zone 3 |
| RRIRCRPPRLPRPRPRPMYGPRP | zone 1 |
| RRIRSRPPRLPRPRPRPNRFPRP | zone 2 |
| RRIRMRPPRLPRPRPRPWFPPRP | zone 2 |
| RRIRFRPPRLPRPRPRPAGGPRP | zone 3 |
| RRIRLRPPRLPRPRPRPCNHPRP | zone 2 |
| RRIRKRPPRLPRPRPRPQWPPRP | zone 3 |
| RRIRWRPPRLPRPRPRPNWFPRP | zone 3 |
| RRIRERPPRLPRPRPRPQFAPRP | zone 2 |
| RRIRWRPPRLPRPRPRPREWPRP | zone 3 |
| RRIRYRPPRLPRPRPRPIKRPRP | zone 1 |
| RRIRMRPPRLPRPRPRPAKRPRP | zone 3 |
| RRIRIRPPRLPRPRPRPHIMPRP | zone 1 |
| RRIRSRPPRLPRPRPRPHFTPRP | zone 1 |
| RRIRKRPPRLPRPRPRPLCFPRP | zone 3 |
| RRIRFRPPRLPRPRPRPLLTPRP | zone 2 |
| RRIRCRPPRLPRPRPRPQHHPRP | zone 1 |
| RRIRHRPPRLPRPRPRPASCPRP | zone 1 |
| RRIRTRPPRLPRPRPRPENEPRP | zone 3 |
| RRIRYRPPRLPRPRPRPWDPPRP | zone 2 |
| RRIRARPPRLPRPRPRPNAWPRP | zone 3 |
